# measurement_description: gradient 5% acetonitrile 3 min, to 50% in 2 min, to 85% in 15 min, held 3 min, 100 µL/min
# stated_conditions: column: Zorbax Extend-C18 2.1 x 50 mm; eluents: water / acetonitrile, 0.1% formic acid
observation_type: RP-LC retention time (s)

{"molecule": "Cn1cc(C(=O)N2CCC(N(Cc3ccccc3)C3CCOCC3)CC2)cn1", "observation_type": "RP-LC retention time", "measurement": 573}
{"molecule": "O=C(CN1CCN(Cc2ccccc2)CC1)Nc1nc(-c2ccccc2)cs1", "observation_type": "RP-LC retention time", "measurement": 700}
{"molecule": "Cc1ccccc1-c1noc(Cn2c(=O)n(-c3ccccc3C)c(=O)c3sccc32)n1", "observation_type": "RP-LC retention time", "measurement": 1050}
{"molecule": "Cc1cc(N2CCC(NC(=O)Nc3ccccc3Cl)C2=O)ccc1F (centres undefined)", "observation_type": "RP-LC retention time", "measurement": 878}
{"molecule": "Cc1cc(S(=O)(=O)Nc2ccc3c(c2)CCC(=O)N3CC(C)C)ccc1F", "observation_type": "RP-LC retention time", "measurement": 909}
{"molecule": "Cc1csc(-c2cc(S(=O)(=O)N3CCN(C(C)C)CC3)cn2CC(=O)N2CCCCC2)n1", "observation_type": "RP-LC retention time", "measurement": 688}
{"molecule": "O=C(Cn1cc(-c2ccccc2)c2ncn(C3CC3)c(=O)c21)Nc1ccc2c(c1)OCO2", "observation_type": "RP-LC retention time", "measurement": 826}
{"molecule": "Cc1nsc2ncc(C(=O)N3CCOCC3)c(N3CCC(C(=O)Nc4ccccc4Br)CC3)c12", "observation_type": "RP-LC retention time", "measurement": 813}
{"molecule": "COc1ccc(NC(=O)Nc2c(-c3ccc(C)cc3)nc3ccccn23)cc1Cl", "observation_type": "RP-LC retention time", "measurement": 712}
{"molecule": "O=C(Cn1cccc1-c1nnc(C2CCC2)o1)NCc1ccc2c(c1)OCO2", "observation_type": "RP-LC retention time", "measurement": 836}
{"molecule": "Cc1ccccc1N1CCN(C(=O)Cn2c(=O)c3nnc(C)n3c3ncccc32)CC1", "observation_type": "RP-LC retention time", "measurement": 793}
{"molecule": "COc1cccc(-c2ccc(=O)n(Cc3nc(-c4ccc(F)cc4)no3)n2)c1", "observation_type": "RP-LC retention time", "measurement": 984}
{"molecule": "O=C(Cn1c(-c2cccs2)cc2cc(F)ccc21)N1CCN(c2ccccn2)CC1", "observation_type": "RP-LC retention time", "measurement": 761}
{"molecule": "Cc1ccc(S(=O)(=O)N2C[C@@H]3C[C@H](NC(=O)c4cccs4)[C@H]2C3)cc1Cl", "observation_type": "RP-LC retention time", "measurement": 992}
{"molecule": "Cc1csc(-c2cc(S(=O)(=O)N3CCCCC3)cn2CC(=O)N2CCCC2)n1", "observation_type": "RP-LC retention time", "measurement": 890}
{"molecule": "CCCC(=O)Nc1nnc(SCc2nnc(-c3ccccc3)o2)s1", "observation_type": "RP-LC retention time", "measurement": 779}
{"molecule": "COc1ccc(NC(=O)N2CCC3(CC2)NC(=O)c2ccc(Cl)cc2N3C)c(C)c1", "observation_type": "RP-LC retention time", "measurement": 787}
{"molecule": "O=C(O)CN1CCCc2c(cnn2Cc2ccccc2)C1=O", "observation_type": "RP-LC retention time", "measurement": 656}
{"molecule": "CN1CCC(OC2CCN(C(=O)c3ccc(Cl)s3)CC2)CC1", "observation_type": "RP-LC retention time", "measurement": 609}

* * *

# measurement_description: gradient 5% acetonitrile 3 min, to 50% in 2 min, to 85% in 15 min, held 3 min, 100 µL/min
# stated_conditions: column: Zorbax Extend-C18 2.1 x 50 mm; eluents: water / acetonitrile, 0.1% formic acid

{"compound": "CC(C)(O)CC[C@@H](O)[C@](C)(O)[C@H]1CC[C@@]2(O)C3=CC(=O)[C@@H]4C[C@@H](O)[C@@H](O)C[C@]4(C)[C@H]3CC[C@]12C", "RP-LC retention time (s)": 629}
{"compound": "CN1CCN(c2ccc(-c3ccc(NC(=O)c4cc(Cl)ccc4Cl)cc3)nn2)CC1", "RP-LC retention time (s)": 646}
{"compound": "CCOC(=O)c1c(C)[nH]c(C(=O)N2CCCC(C(=O)NC3CCCCCC3)C2)c1C (stereo not drawn)", "RP-LC retention time (s)": 892}
{"compound": "CCCOc1nc2ccccc2nc1N1CCCC(C(=O)Nc2ccc(OC)c(OC)c2)C1 (stereo not drawn)", "RP-LC retention time (s)": 1130}
{"compound": "CCOC(=O)c1sc(NC(=O)c2cn(CC)c3nc(C)ccc3c2=O)nc1C", "RP-LC retention time (s)": 1040}
{"compound": "CN(C)c1ccc(NC(=O)c2cn(-c3ccc(F)cc3)nn2)cc1", "RP-LC retention time (s)": 675}
{"compound": "COc1ccccc1N1CCN(S(=O)(=O)c2cc3n(c2)CCCNC3=O)CC1", "RP-LC retention time (s)": 696}
{"compound": "CCOC(=O)C(=O)Nc1ccc(C(F)(F)F)cc1", "RP-LC retention time (s)": 834}
{"compound": "CS(=O)(=O)N1CCCc2cc(C(=O)NCc3ccco3)ccc21", "RP-LC retention time (s)": 742}
{"compound": "Cc1cc([N+](=O)[O-])ccc1NC(=O)C1COc2ccccc2O1 (stereo not drawn)", "RP-LC retention time (s)": 920}
{"compound": "COc1ccc(NC(=O)N2CC(N(C3CCOCC3)S(C)(=O)=O)C2)c(C)c1", "RP-LC retention time (s)": 664}
{"compound": "COc1ccc(N2CCN(c3cc(SCC(=O)Nc4ccc(F)cc4)ncn3)CC2)cc1", "RP-LC retention time (s)": 1100}
{"compound": "COc1ccccc1NC(=O)Cc1nnc(-c2ccc3ncccc3c2)o1", "RP-LC retention time (s)": 724}
{"compound": "CC1=C(c2cccc(Cl)c2)S(=O)(=O)N=C1N1CCCN(C(=O)NC(C)C)CC1", "RP-LC retention time (s)": 802}
{"compound": "CCN(CC)C(=O)c1cc2c(s1)CCC(C(=O)NCc1ccc3c(c1)OCO3)C2 (stereo not drawn)", "RP-LC retention time (s)": 830}
{"compound": "CC(Oc1cccc(Cl)c1)C(=O)N1CCN(c2cc(-c3cccs3)[nH]n2)CC1 (stereo not drawn)", "RP-LC retention time (s)": 888}
{"compound": "CC(C)N1CCn2c(nc3cc(C(=O)NCc4ccc5c(c4)OCO5)ccc32)C1=O", "RP-LC retention time (s)": 680}
{"compound": "COc1ccc(N2C(=O)C3N=NN(Cc4nc(-c5ccccc5Cl)no4)C3C2=O)cc1OC (stereo not drawn)", "RP-LC retention time (s)": 880}
{"compound": "COc1c(C)cc(S(=O)(=O)NCCN2CCOCC2)c(C)c1C", "RP-LC retention time (s)": 568}
{"compound": "COc1ccc(CCNC(=O)CN2C(=O)c3cccc4cccc(c34)C2=O)cc1OC", "RP-LC retention time (s)": 725}
{"compound": "Cc1ccsc1C(=O)Nc1ccc(N2CCN(Cc3ccccc3)C2=O)nc1", "RP-LC retention time (s)": 834}
{"compound": "CCOc1ccc(-n2cc(-c3nc(-c4cccc(OC)c4)no3)c3ccccc3c2=O)cc1", "RP-LC retention time (s)": 1390}
{"compound": "Cc1nc2cc(-c3noc(C(C)Oc4ccccc4)n3)ccc2n(C2CCCC2)c1=O (stereo not drawn)", "RP-LC retention time (s)": 1310}
{"compound": "CCCS(=O)(=O)N1CCCN(C2=NS(=O)(=O)C(c3ccccc3)=C2C)CC1", "RP-LC retention time (s)": 839}
{"compound": "CCOC(=O)c1sc2ccccc2c1S(=O)(=O)N1CCC(C(N)=O)(N2CCCCC2)CC1", "RP-LC retention time (s)": 656}
{"compound": "O=S(=O)(NCc1cccnc1-c1ccc(F)cc1)c1ccc(Cl)cc1", "RP-LC retention time (s)": 799}
{"compound": "CCN(CC)c1nc(C(=O)N2CCN(c3ccccn3)CC2)nc2nc(C)cc(C)c12", "RP-LC retention time (s)": 570}
{"compound": "COc1ccc(N2CC(c3nc(-c4ccc5c(c4)OCO5)no3)CC2=O)cc1OC (stereo not drawn)", "RP-LC retention time (s)": 824}
{"compound": "CC(C)S(=O)(=O)N1CCCC(Cn2cc(COc3ccc4c(c3)CCC4)nn2)C1 (stereo not drawn)", "RP-LC retention time (s)": 595}
{"compound": "O=C(NCCCN1CCCC1)C1CCN(c2nnc3ccc(Cl)cn23)CC1", "RP-LC retention time (s)": 556}
{"compound": "COc1ccc(C(=O)N(Cc2cc(OC)c(OC)c(OC)c2)C2CCS(=O)(=O)C2)cc1Cl (stereo not drawn)", "RP-LC retention time (s)": 817}
{"compound": "CC1=C(c2cccc(Br)c2)S(=O)(=O)N=C1N1CCN(c2ccccn2)CC1", "RP-LC retention time (s)": 686}
{"compound": "O=C(NCc1ccccc1C(F)(F)F)C1CCN(c2cncnc2N2CCCC2)CC1", "RP-LC retention time (s)": 695}
{"compound": "CCn1cc(-c2nc(C)c(C(=O)Nc3ccc(F)c(F)c3)s2)c2cccnc21", "RP-LC retention time (s)": 1070}
{"compound": "O=C(NCc1cccnc1)N(c1ccccc1)c1ccccc1", "RP-LC retention time (s)": 578}
{"compound": "CN(C)c1ccc2c(c1)CN(C(=O)c1cnn(C)c1)CCO2", "RP-LC retention time (s)": 560}
{"compound": "CN(C)C(=O)c1ccc2c(c1)N(CC(=O)Nc1ccc(F)cc1)C(=O)CS2", "RP-LC retention time (s)": 704}
{"compound": "CCOCCCNC(=O)C1CCN(C2=NS(=O)(=O)C(c3ccc(C)c(C)c3)=C2C)CC1", "RP-LC retention time (s)": 786}

Values compiled from the METLIN SMRT retention time set (Domingo-Almenara et al. 2019).
